The origin of these recorded values is patent US6713265.

Examples of binders with documented Ki follow.
Target: T1, rat hypothalamic Y5 receptor (rat, UniProt Q63634 1-445)
T1 construct: Expressed transiently in COS-7 or stably in 293 cells; also called rat Y5; CG-18
T1 sequence: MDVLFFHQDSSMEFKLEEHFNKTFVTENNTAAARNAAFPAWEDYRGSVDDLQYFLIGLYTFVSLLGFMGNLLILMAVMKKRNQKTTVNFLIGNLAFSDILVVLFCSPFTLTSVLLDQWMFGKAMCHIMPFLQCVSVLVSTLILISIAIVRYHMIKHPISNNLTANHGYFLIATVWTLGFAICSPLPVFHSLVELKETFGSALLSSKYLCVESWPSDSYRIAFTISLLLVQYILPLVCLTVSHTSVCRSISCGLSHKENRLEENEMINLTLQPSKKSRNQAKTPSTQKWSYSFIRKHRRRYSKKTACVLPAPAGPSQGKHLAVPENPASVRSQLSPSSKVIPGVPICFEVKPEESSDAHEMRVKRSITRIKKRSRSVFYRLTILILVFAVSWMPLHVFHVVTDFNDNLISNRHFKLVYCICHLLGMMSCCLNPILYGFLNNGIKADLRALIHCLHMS
Test: 125I-PYY displacement, COS-7 membranes
readout label: Ki (nM)

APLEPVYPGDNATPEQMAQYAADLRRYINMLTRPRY (peptide, UniProt P01298 30-65, looked up, mature; also called PP, human; human pancreatic polypeptide) [human PP]: 5
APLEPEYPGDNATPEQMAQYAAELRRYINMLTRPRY (peptide, UniProt P01302 30-65, looked up, mature; also called PP, bovine) [bovine PP]: 8.4
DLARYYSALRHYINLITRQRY (peptide, UniProt P01304 25-45, looked up, range 16-36; Range counted on the mature peptide) [porcine NPY16-36]: 260
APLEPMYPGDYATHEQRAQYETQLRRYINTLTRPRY (peptide, UniProt P06303 30-65, looked up, mature; also called PP, rat) [rat PP]: 230
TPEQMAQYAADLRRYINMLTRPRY (peptide, UniProt P01298 42-65, looked up, range 13-36; Range counted on the mature peptide) [human PP13-36]: 290
